measurement-target: DNA topoisomerase 1 (Homo sapiens) (UniProt P11387)
Sequence (whole entry): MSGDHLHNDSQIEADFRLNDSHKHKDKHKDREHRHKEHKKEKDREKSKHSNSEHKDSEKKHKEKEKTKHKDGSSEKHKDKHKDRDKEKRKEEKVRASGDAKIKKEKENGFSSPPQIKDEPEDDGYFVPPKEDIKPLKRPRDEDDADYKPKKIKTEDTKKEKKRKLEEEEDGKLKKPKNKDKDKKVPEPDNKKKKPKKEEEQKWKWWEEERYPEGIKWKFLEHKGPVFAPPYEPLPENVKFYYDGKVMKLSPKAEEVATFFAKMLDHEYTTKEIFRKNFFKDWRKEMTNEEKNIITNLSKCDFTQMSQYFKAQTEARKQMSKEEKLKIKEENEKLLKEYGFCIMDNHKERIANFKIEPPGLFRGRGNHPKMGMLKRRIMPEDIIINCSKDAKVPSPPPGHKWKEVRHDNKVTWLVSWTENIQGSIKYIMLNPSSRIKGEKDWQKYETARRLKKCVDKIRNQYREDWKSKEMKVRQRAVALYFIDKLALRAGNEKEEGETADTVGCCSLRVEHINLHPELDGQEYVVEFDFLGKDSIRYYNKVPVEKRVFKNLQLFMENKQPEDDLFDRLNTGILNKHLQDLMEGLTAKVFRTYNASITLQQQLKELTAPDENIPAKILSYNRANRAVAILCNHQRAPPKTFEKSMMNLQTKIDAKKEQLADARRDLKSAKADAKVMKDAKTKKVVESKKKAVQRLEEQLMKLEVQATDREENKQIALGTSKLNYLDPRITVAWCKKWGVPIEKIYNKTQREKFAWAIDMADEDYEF
measurement-protocol: Inhibition of recombinant human topoisomerase 1-mediated relaxation of supercoiled pBR322 DNA at 100 uM measured after 30 mins by ethidium bromide staining based agarose gel electrophoresis relative to control
property: inhibition (%)

[A] Oc1ccc2c(c1)-c1nc(-c3ccccc3C(F)(F)F)cc(-c3ccccc3O)c1C2
[B] Oc1ccc2c(c1)-c1nc(-c3ccccc3)cc(-c3ccccc3O)c1C2
[C] Oc1ccc(-c2cc(-c3ccccc3C(F)(F)F)nc3c2Cc2ccc(O)cc2-3)cc1
Challenge: // sort listed items: inhibition descending Answer format: list of labels, ordered as asked.
Response given: C, A, B

---

System: HeLa
measurement-protocol: Antiproliferative activity against human HeLa cells measured after 72 hrs by EZ-Cytox assay
Assay type: functional, cell-based
The following compounds are shown together with reported pIC50 values.
The read-out pIC50 is expressed as -log10 of concentration in moles per litre.

Worked set:
molecule-smiles	pIC50
Oc1ccc(-c2cc(-c3ccccc3Cl)c3c(n2)-c2ccc(O)cc2C3)cc1	5.31
Oc1cccc(-c2cc(-c3ccccc3C(F)(F)F)nc3c2Cc2cccc(O)c2-3)c1	5.33
Oc1ccc(-c2cc(-c3ccccc3F)nc3c2Cc2cc(O)ccc2-3)cc1	5.32
Oc1cccc(-c2cc(-c3ccccc3Cl)c3c(n2)-c2cc(O)ccc2C3)c1	5.30
Oc1ccc(-c2cc(-c3cccc(Cl)c3)nc3c2Cc2c(O)cccc2-3)cc1	5.45

Turning to the following compound.
Challenge: Answer with the recorded pIC50 of Oc1ccccc1-c1cc(-c2ccccc2)nc2c1Cc1cccc(O)c1-2 only.
Response given: 5.53

---

measurement-protocol: Stability in mouse plasma assessed as parent compound remaining at 1 mM measured immediately by LC-MS/MS analysis
Format: ADME, cell-free
setup-conditions: read-out: Stability
property: remaining at 0 h (%)
Give the quantity in %, number only.

Challenge: Answer with the recorded remaining at 0 h of Oc1ccc(-c2cc(-c3ccccc3Cl)nc3c2Cc2c(O)cccc2-3)cc1 only.
Response given: 100
